Entry source: patent US20250098679A1

Tested on: Zea mays (ZEAMX)
Assay: Post-emergence Test, Zea mays (ZEAMX)
Type: in vivo
Parameters: key: 5=81-100%, 4=61-80%, 3=41-60%, 2=21-40%, 1=0-20% damage
Details: 250 g/Ha, evaluated after 13 days
Experimental: Seeds of a variety of test species are sown in standard soil in pots (Setaria faberi (SETFA), Echinochloa crus-galli (ECHCG), Zea mays (ZEAMX), Ipomoea hederacea (IPOHE), Amaranthus palmeri (AMAPA), Amaranthus retoflexus (AMARE)). […] After 13 days the test is evaluated for the percentage damage caused to the plant. […]
Outcome measure: percentage damage caused to the plant, ZEAMX (five-point scale)

# value lookup — system Zea mays (ZEAMX), readout percentage damage caused to the plant, ZEAMX (five-point scale), item `COCCn1c(Cn2ccc(C(F)(F)F)n2)cc(=O)c(C(=O)O)c1-c1ccc(Cl)c(Cl)c1`
0

Tell me reported percentage damage caused to the plant, ZEAMX (five-point scale) for `CCOC(=O)c1c(-c2ccc(Cl)c(Cl)c2)n(CC)c(Cn2nccc2Cl)cc1=O` , tested with Zea mays (ZEAMX).
0

Lab note: need percentage damage caused to the plant, ZEAMX (five-point scale) with Zea mays (ZEAMX) for entry `CCn1c(Cn2cc3cc(Cl)ccc3n2)cc(=O)c(C(=O)O)c1-c1ccc(Cl)c(Cl)c1` , please look it up.
0

Enter reported percentage damage caused to the plant, ZEAMX (five-point scale) observed with Zea mays (ZEAMX) for `CCn1c(Cn2cnc(Cl)c2Cl)cc(=O)c(C(=O)O)c1-c1ccc(Cl)c(Cl)c1`
0

# value lookup — system Zea mays (ZEAMX), readout percentage damage caused to the plant, ZEAMX (five-point scale), item `CCn1c(Cn2ccc(OCCOC)n2)cc(=O)c(C(=O)O)c1-c1ccc(Cl)c(Cl)c1`
1 (1=0-20%)

Provide value of percentage damage caused to the plant, ZEAMX (five-point scale) for this record tested with Zea mays (ZEAMX): `CCn1c(Cn2ccc(COC)n2)cc(=O)c(C(=O)O)c1-c1ccc(Cl)c(Cl)c1`
1 (1=0-20%)

Write down the reported percentage damage caused to the plant, ZEAMX (five-point scale) of `CCOC(=O)c1c(-c2ccc(Cl)c(Cl)c2)n(CC)c(Cn2ccc(C(F)(F)F)n2)cc1=O` , test system: Zea mays (ZEAMX).
1 (1=0-20%)

# query: percentage damage caused to the plant, ZEAMX (five-point scale) | item `CCn1c(Cn2nccc2C#N)cc(=O)c(C(=O)O)c1-c1ccc(Cl)c(Cl)c1` | system: Zea mays (ZEAMX)
0

---

tested on: Setaria faberi (SETFA); test: Pre-emergence Test, Setaria faberi (SETFA); format: in vivo; conditions: 1000 g/ha, evaluated after 13 days
Answer each item with its documented Pre-emergence Test SETFA, percentage damage caused to the plant (five-point scale).

State the recorded Pre-emergence Test SETFA, percentage damage caused to the plant (five-point scale) for this entry: `CCn1c(Cn2ccc(C(F)(F)F)n2)cc(=O)c(C(=O)O)c1-c1cccc(Cl)c1`
5 (5=81-100%)

Reported Pre-emergence Test SETFA, percentage damage caused to the plant (five-point scale), molecule `Cn1c(Cn2ccc(Cl)n2)cc(=O)c(C(=O)O)c1-c1ccc(Cl)c(Cl)c1` : ____
5 (5=81-100%)

What value of Pre-emergence Test SETFA, percentage damage caused to the plant (five-point scale) has been recorded for this entry: `CCOC(=O)c1cc(C(=O)OCC)n(Cc2cc(=O)c(C(=O)O)c(-c3ccc(Cl)c(Cl)c3)n2CC)n1`
0

Given `CCn1c(Cn2ccc(C(F)F)n2)cc(=O)c(C(=O)O)c1-c1ccc(Cl)c(Cl)c1` , state its recorded Pre-emergence Test SETFA, percentage damage caused to the plant (five-point scale).
5 (5=81-100%)

What value of Pre-emergence Test SETFA, percentage damage caused to the plant (five-point scale) has been recorded for this entry: `CCn1c(Cn2ccc(OC(F)F)n2)cc(=O)c(C(=O)O)c1-c1ccc(Cl)c(Cl)c1`
5 (5=81-100%)

Could you tell me which Pre-emergence Test SETFA, percentage damage caused to the plant (five-point scale) is on file for `CCn1c(Cn2ncc3cc(F)ccc32)cc(=O)c(C(=O)O)c1-c1ccc(Cl)c(Cl)c1` ?
1 (1=0-20%)

For the molecule shown here, `CCn1c(Cn2nc(C)cc2OC)cc(=O)c(C(=O)O)c1-c1ccc(Cl)c(Cl)c1` , give the reported Pre-emergence Test SETFA, percentage damage caused to the plant (five-point scale).
5 (5=81-100%)

# Pre-emergence Test SETFA, percentage damage caused to the plant (five-point scale) lookup, item `CCn1c(Cn2cnc(C(F)(F)F)n2)cc(=O)c(C(=O)O)c1-c1ccc(Cl)c(Cl)c1`
3 (3=41-60%)

I am curious: what Pre-emergence Test SETFA, percentage damage caused to the plant (five-point scale) value has been reported for `CCOC(=O)c1nn(Cc2cc(=O)c(C(=O)O)c(-c3ccc(Cl)c(Cl)c3)n2CC)cc1C` ?
1 (1=0-20%)

# get_value(readout='Pre-emergence Test SETFA, percentage damage caused to the plant (five-point scale)', item= `CCn1c(Cn2ccc(SC)n2)cc(=O)c(C(=O)O)c1-c1ccc(Cl)c(Cl)c1` )
4 (4=61-80%)

Need Pre-emergence Test SETFA, percentage damage caused to the plant (five-point scale) of `CCn1c(Cn2nc(C(F)(F)F)nc2C)cc(=O)c(C(=O)O)c1-c1ccc(Cl)c(Cl)c1` , thanks.
0

# input molecule: `CCn1c(Cn2nc(Cl)cc2C)cc(=O)c(C(=O)O)c1-c1ccc(Cl)c(Cl)c1` ; wanted: its Pre-emergence Test SETFA, percentage damage caused to the plant (five-point scale)
4 (4=61-80%)

Query: Pre-emergence Test SETFA, percentage damage caused to the plant (five-point scale); subject: `CCn1c(Cn2cc(Cl)c(C3CC3)n2)cc(=O)c(C(=O)O)c1-c1ccc(Cl)c(Cl)c1`
1 (1=0-20%)

What does the record list as Pre-emergence Test SETFA, percentage damage caused to the plant (five-point scale) for `CCn1c(Cn2ccc(OC)n2)cc(=O)c(C(=O)O)c1-c1ccc(Cl)c(Cl)c1` ?
5 (5=81-100%)

What measured Pre-emergence Test SETFA, percentage damage caused to the plant (five-point scale) goes with `CCn1c(Cn2nc(Cl)cc2C(F)(F)F)cc(=O)c(C(=O)O)c1-c1ccc(Cl)c(Cl)c1` ?
5 (5=81-100%)

I'd like to know its Pre-emergence Test SETFA, percentage damage caused to the plant (five-point scale). The molecule in question is `Cn1c(Cn2ccc(C(F)(F)F)n2)cc(=O)c(C(=O)O)c1-c1ccc(Cl)c(Cl)c1`
5 (5=81-100%)

---

tested on: Echinochloa crus-galli (ECHCG); test: Post-emergence Test, Echinochloa crus-galli (ECHCG); assay type: in vivo; parameters: key: 5=81-100%, 4=61-80%, 3=41-60%, 2=21-40%, 1=0-20% damage; details: 1000 g/ha, evaluated after 13 days
For each record, write down the corresponding percentage damage caused to the plant, ECHCG (five-point scale).

Please look up its percentage damage caused to the plant, ECHCG (five-point scale): `CCn1c(Cn2nc(Cl)cc2C)cc(=O)c(C(=O)O)c1-c1ccc(Cl)c(Cl)c1`
4 (4=61-80%)

Sample `CCn1c(Cn2ncc3ccccc32)cc(=O)c(C(=O)O)c1-c1ccc(Cl)c(Cl)c1` — what was its percentage damage caused to the plant, ECHCG (five-point scale)?
3 (3=41-60%)

Bench note: what percentage damage caused to the plant, ECHCG (five-point scale) did `CCn1c(Cn2nccc2Cl)cc(=O)c(C(=O)O)c1-c1ccc(Cl)c(Cl)c1` show?
4 (4=61-80%)

---

system: Setaria faberi (SETFA); test: Pre-emergence Test, Setaria faberi (SETFA); assay type: in vivo; details: 1000 g/ha, evaluated after 13 days
Outcome measure: Pre-emergence Test SETFA, percentage damage caused to the plant (five-point scale)

Which measured Pre-emergence Test SETFA, percentage damage caused to the plant (five-point scale) belongs to `CCn1c(Cn2nc(C(F)(F)F)cc2OC(F)F)cc(=O)c(C(=O)O)c1-c1ccc(Cl)c(Cl)c1` , tested on Setaria faberi (SETFA)?
5 (5=81-100%)

Which measured Pre-emergence Test SETFA, percentage damage caused to the plant (five-point scale) belongs to `CCn1c(Cn2ccnn2)cc(=O)c(C(=O)O)c1-c1ccc(Cl)c(Cl)c1` , tested on Setaria faberi (SETFA)?
1 (1=0-20%)

Give Pre-emergence Test SETFA, percentage damage caused to the plant (five-point scale) (Setaria faberi (SETFA)) of the following compound: `CCOC(=O)c1c(-c2ccc(Cl)c(Cl)c2)n(CC)c(Cn2ccc(C(F)(F)F)n2)cc1=O`
4 (4=61-80%)

Setaria faberi (SETFA) / Pre-emergence Test SETFA, percentage damage caused to the plant (five-point scale) / `CCn1c(Cn2cc(C(F)(F)F)nc2C)cc(=O)c(C(=O)O)c1-c1ccc(Cl)c(Cl)c1` : value?
1 (1=0-20%)

What measured Pre-emergence Test SETFA, percentage damage caused to the plant (five-point scale) is associated with `CCOC(=O)c1c(-c2ccc(Cl)c(Cl)c2)n(CC)c(Cn2ccc(Cl)n2)cc1=O` on Setaria faberi (SETFA)?
5 (5=81-100%)

Query Pre-emergence Test SETFA, percentage damage caused to the plant (five-point scale) on Setaria faberi (SETFA) for `CCn1c(Cn2cc(Cl)c(C)n2)cc(=O)c(C(=O)O)c1-c1ccc(Cl)c(Cl)c1`
4 (4=61-80%)

Find the measured Pre-emergence Test SETFA, percentage damage caused to the plant (five-point scale): item `CCn1c(Cn2ccc(C(F)(F)F)n2)c(C)c(=O)c(C(=O)O)c1-c1ccc(Cl)c(Cl)c1` , target or system Setaria faberi (SETFA).
2 (2=21-40%)

Item: `CCn1c(Cn2ccc(OCCOC)n2)cc(=O)c(C(=O)O)c1-c1ccc(Cl)c(Cl)c1` Test system: Setaria faberi (SETFA) Read-out: Pre-emergence Test SETFA, percentage damage caused to the plant (five-point scale) Value: ?
4 (4=61-80%)

Notebook: pull reported Pre-emergence Test SETFA, percentage damage caused to the plant (five-point scale) for Setaria faberi (SETFA), entry `CCn1c(Cn2cncn2)cc(=O)c(C(=O)O)c1-c1ccc(Cl)c(Cl)c1`
0

Pre-emergence Test SETFA, percentage damage caused to the plant (five-point scale) of `CCOC(=O)c1c(-c2ccc(Cl)c(Cl)c2)n(CC)c(Cn2cc(F)cn2)cc1=O` on Setaria faberi (SETFA)?
1 (1=0-20%)
